Would you mind telling me the reported Ki of each entry?
targetOfAssay: Human CXCR4 transfected HEK293 cells (Homo sapiens)
Sequence (P61073 whole entry): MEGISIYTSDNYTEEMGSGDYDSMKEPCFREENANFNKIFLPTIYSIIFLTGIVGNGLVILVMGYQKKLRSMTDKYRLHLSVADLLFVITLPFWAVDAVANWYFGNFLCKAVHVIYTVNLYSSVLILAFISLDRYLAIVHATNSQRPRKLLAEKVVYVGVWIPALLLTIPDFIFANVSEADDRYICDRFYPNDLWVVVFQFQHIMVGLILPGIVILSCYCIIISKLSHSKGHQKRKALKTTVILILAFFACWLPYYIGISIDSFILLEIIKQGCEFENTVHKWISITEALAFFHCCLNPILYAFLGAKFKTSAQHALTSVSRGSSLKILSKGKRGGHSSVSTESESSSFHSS
measurementDescription: CXCR4 functional calcium assay (calcium flux FLIPR, antagonism of SDF1 response)
measurementContext: CXCR4 functional activity, antagonism of SDF1 (EC50 concentration), read-out: CXCR4 fKi

Give Ki for each of the items listed below.
1. CC(C)N1CCC(CN[C@@H]2CCN(c3cccc(-c4ncc(C5CC5)[nH]4)n3)C2)CC1
2. C[C@H](c1ccccc1)N1CCC(N2CCCN(c3cccc(C(=O)NCC4CC4)n3)CC2)CC1
3. CC(C)N1CCC(N2CCN(c3cccc(C(=O)NCC4CC4)n3)CCC2C)CC1 (centres unmarked)
4. CC(C)N1CCC(N2CCCN(c3cccc(C(=O)NCC(F)(F)F)n3)CC2)CC1
5. Cc1ccccc1CN1CCCC(N2CCN(c3cccc(C(=O)Nc4ccncc4)n3)CC2)CC1 (centres unmarked)
6. Cc1cc(C(=O)NCCCn2ccnc2)nc(N2CCCN(C3CCN(Cc4ccccc4Cl)CC3)CC2)n1
7. CC(C)N1CCC(N2CCCN(c3cccc(-c4c[nH]c5ccccc45)n3)CC2)CC1
8. CC(CC(F)(F)F)N1CCC(N2CCCN(c3cccc(C(=O)NCC4CC4)n3)CC2)CC1 (centres unmarked)

Response:
1: 500 to 1000 nM; 2: 100 to 500 nM; 3: 20 to 100 nM; 4: 100 to 500 nM; 5: 20 to 100 nM; 6: 100 to 500 nM; 7: 500 to 1000 nM; 8: 20 to 100 nM

Quick batch: Ki for everything below.
1. O=C(Nc1ccncc1)c1cccc(N2CCCN(C3CCC(N4CCCC4C(F)(F)F)CC3)CC2)n1 (centres unmarked)
2. Cc1nc(-c2cccc(N3CC[C@@H](NC[C@@H]4CCN(C5CCCC5)C4)C3)n2)[nH]c1C1CC1
3. CC(C)c1cnc(-c2cccc(N3CCCN(C4CCN(C(C)C)CC4)CC3)n2)[nH]1
4. [2H]C1([2H])CCN(C2CCN([C@@H](C)CC)CC2)CCN1c1cccc(C(=O)Nc2ccncc2)n1
5. O=C(NCC(F)(F)F)c1cccc(N2CCCN(C3CCN(Cc4ccccc4Cl)CC3)CC2)n1
6. c1cc(NCCNC2CCCN(C3CCCC3)C2)nc(-c2ncc(C3CC3)[nH]2)c1 (centres unmarked)
7. CC(C)N1CCC(N2CCCN(c3cccc(C(=O)N(C)Cc4cccnc4)n3)CC2)CC1
8. O=C(NCC1CC1)c1cccc(N2CCCN(C3CCN(Cc4ccc(F)cc4Cl)CC3)CC2)n1

Response:
500 to 1000 nM
< 20 nM
20 to 100 nM
< 20 nM
100 to 500 nM
100 to 500 nM
100 to 500 nM
< 20 nM

Give Ki for all compounds that follow.
1. CC(C)N1CCC(N2CCCN(c3cccc(C(=O)NCc4nccn4C)n3)CC2)CC1
2. CC(C)N1CCC(N2CCCN(c3cccc(-c4noc(C5CCCC5)n4)n3)CC2)CC1
3. N#Cc1cccc(N2CCCN(C3CCN(Cc4ccccc4Cl)CC3)CC2)n1
4. CC(C)N1CCC(N2CCCN(c3cccc(C(=O)Nc4ccccc4O)n3)CC2)CC1
5. [2H]C1([2H])CCN(c2cccc(C(=O)Nc3ccncc3)n2)CCN1C1CCN(C2CCCC2)CC1

Response:
1: 100 to 500 nM; 2: 100 to 500 nM; 3: 500 to 1000 nM; 4: 20 to 100 nM; 5: < 20 nM

Parameter requested: Ki. Apply to each item below.
1. O=C(Nc1ccncc1)c1cccc(N2CC[C@@H](NCC3CCN(C4CCCC4)CC3)C2)n1
2. Cc1nc(-c2cccc(NCCNC3CCCN(C4CCCC4)CC3)n2)[nH]c1C1CC1 (centres unmarked)
3. CC[C@@H](C)N1CCC(N2CCCN(c3cccc(C(=O)Nc4ccncc4)n3)CC2)CC1
4. CC(C)N1CCC(N2CCCN(c3cccc(C(=O)NCc4ccncc4)n3)CC2)CC1
5. O=C(Nc1cccnc1)c1cccc(N2CCCN(C3CCN(Cc4ccccc4Cl)CC3)CC2)n1
6. O=C(NCc1cocn1)c1cccc(N2CCCN(C3CCN(Cc4ccccc4Cl)CC3)CC2)n1
7. CC(C)N1CCC(N2CCCN(c3cccc(-c4nc5cnccc5[nH]4)n3)CC2)CC1
8. CC(C)N1CCC(N2CCCN(c3cccc(C(=O)NCCF)n3)CC2)CC1

Response:
1: < 20 nM; 2: 20 to 100 nM; 3: < 20 nM; 4: < 20 nM; 5: 20 to 100 nM; 6: 100 to 500 nM; 7: < 20 nM; 8: 100 to 500 nM
